Assay: In vivo pharmacokinetic studies in rats, 1 hr intravenous infusion
Conditions: male, Sprague-Dawley, rat, in vivo, iv, 100 mg/kg
assayMetric: AUC(0-inf) (ng·h/mL)
// units = ng·h/mL; emit number, no label

Please give the documented AUC(0-inf) of Cn1c(=O)ccc2ccc(F)c(CCNC[C@H]3CN(c4cnc5c(n4)NC(=O)CO5)C(=O)O3)c21
73700

###

The following are reported MIC results, target or system Enterococcus faecalis ATCC 29212.
Hey, just the number and the unit after it is fine.

The cases that follow already have their MIC on record.
compoundString: CS(=O)(=O)CCn1c(=O)ccc2ccc(F)c(CCNC[C@H]3CN(c4ccc5c(n4)NC(=O)CO5)C(=O)O3)c21
MIC: 0.5 µg/mL
//
compoundString: Cn1c(=O)ccc2ccc(F)c(CCCNC[C@@H]3CN(c4cnc5c(n4)NC(=O)CO5)C(=O)O3)c21
MIC: 0.06 µg/mL

// next item, MIC requested
State measured MIC of the compound Cn1c(=O)cnc2ccc(F)c(CCNC[C@@H]3CN(c4ccc5c(n4)NC(=O)CO5)C(=O)O3)c21 with Enterococcus faecalis ATCC 29212.
0.25 µg/mL

###

Each record here notes measured MIC.
Tested on: Enterococcus faecalis ATCC 29212
Hey, just the number and the unit after it is fine.

compound: CCn1c(=O)ccc2ccc(F)c(CCNCC[C@H]3CN(c4cnc5c(n4)NC(=O)CO5)C(=O)O3)c21 [Example 27]
MIC: 0.06 µg/mL

Please give the documented MIC of Cn1c(=O)ccc2ccc(F)c(CCCNC[C@H]3CN(c4cnc5c(n4)NC(=O)CO5)C(=O)O3)c21 [Example 22]
0.06 µg/mL

Please give the documented MIC of Cn1c(=O)cnc2ccc(F)c(CCNC[C@H]3CN(c4ncc5c(n4)NC(=O)CO5)C(=O)O3)c21 [Example 17]
0.25 µg/mL

###

Assay: In vivo pharmacokinetic studies in rats, 1 hr intravenous infusion
Settings: male, Sprague-Dawley, rat, in vivo, iv, 30 mg/kg, Vss, male SD rats, 30 mg/kg, 1 h IV infusion
assayMetric: Vd (L/kg)
// units = L/kg; emit number, no label

Please give the documented Vd of Cn1c(=O)ccc2ccc(F)c(CCNC[C@H]3CN(c4cnc5c(n4)NC(=O)CO5)C(=O)O3)c21
0.84

###

Experiment: In vivo pharmacokinetic studies in rats, 1 hr intravenous infusion
Conditions: male, Sprague-Dawley, rat, in vivo, iv, 100 mg/kg, Vss, male SD rats, 100 mg/kg, 1 h IV infusion
assayMetric: Vd (L/kg)
// units = L/kg; emit number, no label

Please give the documented Vd of Cn1c(=O)ccc2ccc(F)c(CCNC[C@H]3CN(c4cnc5c(n4)NC(=O)CO5)C(=O)O3)c21 [Example 15]
0.9

###

Assay: In vivo pharmacokinetic studies in rats, 1 hr intravenous infusion
Conditions: male, Sprague-Dawley, rat, plasma, iv, 5 mg/kg, Vd, male SD rats, 1 h IV infusion
assayMetric: Vd
Hey, just the number and the unit after it is fine.

Please give the documented Vd of Cn1c(=O)ccc2ccc(F)c(CCNC[C@H]3CN(c4cnc5c(n4)NC(=O)CO5)C(=O)O3)c21
2.21 L/kg

###

Test: In vivo pharmacokinetic studies in rats, 1 hr intravenous infusion
Settings: male, Sprague-Dawley, rat, plasma, iv, 5 mg/kg
assayMetric: clearance (mL/min/kg)
// units = mL/min/kg; emit number, no label

Please give the documented clearance of Cn1c(=O)ccc2ccc(F)c(CCNC[C@H]3CN(c4cnc5c(n4)NC(=O)CO5)C(=O)O3)c21
48.7
